FYI, the data here is from patent US20040241845A1.

Target: T1, Staufen/YFP fusion protein (human, UniProt O95793 82-577)
T1 construct: BRET acceptor, expressed in live 293T cells; also called pCMV-Staufen/YFP; not shown: YFP of pCMV-GFP-Topaz (red-shifted GFP variant of Aequorea victoria GFP); its substitutions and the junction are not pri
T1 sequence: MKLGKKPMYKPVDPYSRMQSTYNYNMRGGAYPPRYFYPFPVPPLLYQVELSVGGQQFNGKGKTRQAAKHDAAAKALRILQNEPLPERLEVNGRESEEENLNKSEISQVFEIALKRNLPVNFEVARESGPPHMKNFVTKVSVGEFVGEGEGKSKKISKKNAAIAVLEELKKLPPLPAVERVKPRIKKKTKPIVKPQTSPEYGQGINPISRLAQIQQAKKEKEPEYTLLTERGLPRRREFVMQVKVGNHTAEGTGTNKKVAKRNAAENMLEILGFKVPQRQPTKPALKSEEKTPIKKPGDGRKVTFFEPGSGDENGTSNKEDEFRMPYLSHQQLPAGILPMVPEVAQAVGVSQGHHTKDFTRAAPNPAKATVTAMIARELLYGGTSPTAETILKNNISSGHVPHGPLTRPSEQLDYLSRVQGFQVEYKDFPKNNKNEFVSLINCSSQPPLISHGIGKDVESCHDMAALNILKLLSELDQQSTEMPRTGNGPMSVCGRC
Test: BRET in live 293T cells

BINDER: p2-p1/Rluc (other, domain: p2-p1; not shown: Renilla reniformis luciferase (Rluc) of pRluc-N1(h)) AEAMSQVTNSATIMMQRGNFRNQRKIVKCFNCGKEGHTARNCRAPRKKGCWKCGKEGHQMKDCTERQANFLGKIWPSYKGRPGNF
binding result: binds

BINDER: p6/Rluc (other, domain: p6; not shown: Renilla reniformis luciferase (Rluc) of pRluc-N1(h)) LQSRPEPTAPPEESFRSGVETTTPPQKQEPIDKELYPLTSLRSLFGNDPSSQ
binding result: no binding

BINDER: MA/Rluc (other, domain: MA; not shown: Renilla reniformis luciferase (Rluc) of pRluc-N1(h)) MGARASVLSGGELDRWEKIRLRPGGKKKYKLKHIVWASRELERFAVNPGLLETSEGCRQILGQLQPSLQTGSEELRSLYNTVATLYCVHQRIEIKDTKEALDKIEEEQNKSKKKAQQAAADTGHSNQVSQNY
binding result: no binding

BINDER: NC/Rluc (other, domain: NC; not shown: Renilla reniformis luciferase (Rluc) of pRluc-N1(h)) MQRGNFRNQRKIVKCFNCGKEGHTARNCRAPRKKGCWKCGKEGHQMKDCTERQAN
binding result: binds
